Tested on: SARS-CoV-2 nsp12/7/8 (RTC) complex (Severe acute respiratory syndrome coronavirus 2, UniProt P0DTD1)
Method: biochemical
Assay type: biochemical
Run parameters: primer-extension PAGE assay, 150 nM RTC, 5% DMSO, 30 min preincubation at 37 °C; mean and SD of at least 3 independent experiments
Attribute measured: IC50 (µM)
Return type: number; implicit unit µM.

[
  {
    "Compound": "O=C(Nc1nc(-c2cc(Cl)cs2)c(N2CCN(C3CCCCC3)CC2)s1)c1cnc(N2CCC(C(=O)O)CC2)c(Cl)c1 [Avatrombopag, reference compound]",
    "Attribute measured": "IC50",
    "Unit name": "µM",
    "Recorded number": 27.2
  }
]

We now examine a further compound.
IC50 reading for "CC1(C)CCC(CN2CCN(c3ccc(C(=O)NS(=O)(=O)c4ccc(NCC5CCOCC5)c([N+](=O)[O-])c4)c(Oc4cnc5[nH]ccc5c4)c3)CC2)=C(c2ccc(Cl)cc2)C1" : 2.37

====

Reported IC50 is given for each of the following compounds.
Tested on: SARS-CoV-2 nsp12/7/8 (RTC) complex (Severe acute respiratory syndrome coronavirus 2)
Method: biochemical
Format: biochemical
Run parameters: read-out: IC50: compound concentration required to inhibit by 50% the SARS-CoV-2 RTC enzymatic activity

// known answers, use as guide
[
  {
    "Chemical string": "CC(C)=CCc1c(O)ccc(C(=O)[C@@H]2[C@@H](c3c(O)cc(O)c4c(=O)c(CC=C(C)C)c(-c5ccc(O)cc5O)oc34)C=C(C)C[C@H]2c2ccc(O)cc2O)c1O",
    "IC50": "66.2 µM"
  },
  {
    "Chemical string": "CC1(C)CC[C@]2(C(=O)O)CCC3=C([C@@H](CCl)C[C@@H]4[C@@]5(C)C[C@H](O)[C@H](O)[C@@](C)(C(=O)O)[C@@H]5CC[C@@]34C)[C@@H]2C1",
    "IC50": "> 100 µM"
  }
]

Form field IC50, entry "CC(C)=CCc1c(-c2ccc(O)cc2O)oc2c([C@H]3C=C(C)C[C@@H](c4ccc(O)cc4O)[C@@H]3C(=O)c3ccc(O)cc3O)c(O)cc(O)c2c1=O" : 41 µM

The recorded IC50 for entry "C[C@H]1O[C@@H](O[C@H]2CC[C@@]3(C)[C@@H](CC[C@]4(C)[C@@H]3C=C[C@]35OC[C@@]6(CCC(C)(C)C[C@H]63)[C@H](O)C[C@]54C)[C@]2(C)CO)[C@H](O)[C@@H](O[C@@H]2O[C@H](CO)[C@@H](O)[C@H](O)[C@H]2O)[C@H]1O" equals > 100 µM

"Cc1ccccc1N=Cc1c(O)c(O)c(C(C)C)c2cc(C)c(-c3c(C)cc4c(C(C)C)c(O)c(O)c(C=Nc5ccccc5C)c4c3O)c(O)c12" has a reported IC50 of 28.4 µM

====

Tested on: SARS-CoV-2 nsp12/7/8 (RTC) complex (Severe acute respiratory syndrome coronavirus 2, UniProt P0DTD1)
Method: biochemical
Type: biochemical
Attribute measured: pIC50
In simple prose, pIC50 is minus the logarithm base ten of a concentration in moles per litre.

[
  {
    "Compound": "C[C@H]1CC[C@]2(NC1)O[C@H]1C[C@H]3[C@@H]4CC[C@H]5C[C@@H](O)CC[C@]5(C)[C@H]4CC[C@]3(C)[C@H]1[C@@H]2C [Tomatidine]",
    "Recorded number": 4.29
  }
]

Input CC(=O)O[C@@H]1CC[C@@]2(C)[C@@H](CC[C@]3(C)[C@@H]2C(=O)C=C2[C@@H]4[C@@H](C)[C@H](C)CC[C@]4(C)CC[C@]23C)[C@@]1(C)C(=O)O [AKBA, 3-O-Acetyl-11-Keto-Beta-Boswellic Acid] . Output pIC50: 5.30

Recorded values, source paper PMC12519464.
